Origin of measurements: the supplement of paper PMC12764529

protocolDetails: folding stability dG unfold (combined trypsin and chymotrypsin); higher = more stable
folding stability dG unfold reference

Reference set (10 entries):
SMPPGERYRMTMKFPDGKKITLEMNPGGWWRIKVENKNGKPQHQQPIPPDNPQELAENFGIDKVTDVEPVSA [r9_1107_TrROS] :: 2.05 kcal/mol
SAGGSAGGSAGAPPEGAKPVEEETVPIEIQMRNDDDGKPIMPIKFEVRVYKFPDGIFISISAGGSAGGSAGG [r11_415_TrROS] :: 2.45 kcal/mol
SAGGSAGGGMRIDDIDIKQDPGNPNRYKITIKFDGPPIEFTVPPGEPLPIRFPDGKPLFEIPIDSAGGSAGG [r6_922_TrROS] :: 0.479 kcal/mol
SAPAVLLEEPDTLVEVEKLPDGSLLIRRVTKFPDGSVTVEISVIYPGGSLSVLESVTLNVPPEEPLPLLSAG [r14_42_JUSTAS] :: 1.91 kcal/mol
SAGGSAGGKKTYRLEITIYNKDGKEIKKIEIEAETEEEALEAAKKLQEEAKKKGLKVEIKVEKVSAGGSAGG [r6_285_TrROS_Hall] :: 4.72 kcal/mol
SAGGSAGGGWITIPIYIIKMKRTRRDPDGKPKPLDPNDPEDFEVVPPRPFRIPLPPEEAKKLLKSAGGSAGG [r6_219_TrROS] :: -0.434 kcal/mol
SEPWELVEERELPPNAVITFPNGEKLEIDPEKARVRVWRRPDSVRVLVVLKDGTVLEFEFYAPPRVTDDDSA [r9_348_TrMRF] :: 2.69 kcal/mol
SAGGSAGGPVVISVPALVKLAKELGLKLVFFPETKTVILEHPDSFLIATIDSKGNVSIAPALPESAGGSAGG [r6_155_TrMRF] :: 2.64 kcal/mol
SAGGKKTYKVRIEIKVTDPNGKKRTIEIELEVPESEEEAEKLAKELAEKLKEKGYKVEIVKIEVEPLSAGGS [r16_525_TrROS_Hall] :: 4.03 kcal/mol
SAGGHHHHHHHHIDGKFRSEEEAKKLKEEIEKELRAKGYTDIEVEVEVKVEEPPPRRPRPGSPAYTLGSAGG [r13_6_JUSTAS] :: 0.955 kcal/mol

Which value of folding stability dG unfold has been reported for SALKGLKITEIKEVTNEDGSKSLVVRVDGYLLVFDLDTKKLTLVPLPPVTVTVTVYEKKADPNKPEYKKKSA [r9_1065_TrROS_Hall] in the records?
2.77 kcal/mol

Requested field: folding stability dG unfold. Item: SAGGKTIWIPMPPGDPEKFAKNIADEILEEAQKQGENVDVKITIQYPDGQYMRITIDGNGKIDKIVPWSAGG [r13_965_TrROS]
0.636 kcal/mol

Query: folding stability dG unfold; subject: SAGGSAGGSMKVYKLPGGYTVTVEPVDGGTLVTITLPDGSVKTKFVPPDEPVVVDPNGAKITVSAGGSAGGS [r12_281_JUSTAS]
2.29 kcal/mol

Please report the recorded folding stability dG unfold for SMPLIIIAKKNKDGTGTILIKKGDKVIEIEFEKNIKPEELKKKAIETALTLKKKTEELGIPIEIKEIIFESA [r9_751_TrMRF] .
2.1 kcal/mol

Tell me the measured folding stability dG unfold of SAGGSAGGSAGGSDNSITLDFFFNNYYIKITFNPWNGNLEIDEVQKVPPPPKPKDPGDKSAGGSAGGSAGGS [r4_21_TrROS] , please.
2.94 kcal/mol

I would be grateful if you could share the reported folding stability dG unfold for SAGGPNFIVKIRIPMRKYERENDPGGKPKWEPVEPQRVEITIIFKGPPEQAKQIREELENHGLEVEPISAGG [r13_452_TrROS] .
2.05 kcal/mol

Form field: reported folding stability dG unfold of SMSLVVSEEVDPATGTTTVTTTFPSPGVTVTATASAAGDSVTTTVTTTSPAPSAPTTTTTTTPVAPPGTDAS [r1_404_JUSTAS]
0.806 kcal/mol

May I ask what folding stability dG unfold has been recorded for SAGGSAGGSAGGLEEIRENGEALVFYPDGRVYRVDLKTGKITPPPGFKPENIVRVVFVKKSAGGSAGGSAGG [r7_566_TrMRF] ?
0.301 kcal/mol

Which value of folding stability dG unfold has been reported for SAGGSWIEKLPPDYTILLEKPDGTPFTRKIPANASEEEVLALNPPGSSKIELVSLDPSGRAVWRTPGSAGGS [r16_103_JUSTAS] in the records?
< -1 kcal/mol

May I ask what folding stability dG unfold has been recorded for MEIKKIELKVEEKDGKLVLTVKIEVFDKNGKLVKKVEIKLEVPKELKEGQSLEELPLSEELRKLVKELLEKS [r1_354_TrROS_Hall] ?
3.54 kcal/mol

Could you share which folding stability dG unfold value was measured for SAGGSATVEVATEPDGTVTVTTLETDPAEPRGTVTTTTVTVTTEPTPEPFLSSSTTTTTTATAPAPSAGGSA [r15_438_JUSTAS] ?
-0.0573 kcal/mol

Reported folding stability dG unfold for SAGGDMWMIKVEHPNGRPFQIMINPNKPEISIQFNDGETRTFPIPKDYTIEDLAKELPPGYKVEIHPMSAGG [r13_696_TrROS] : what is it?
2.4 kcal/mol

Which folding stability dG unfold is listed for SAGGGMLLTTTQTITLPNGTLLTVTSTFTLTPPAVPVPVVELDESSIAEYDPATGILTDPSVPTPIPVPSAG [r5_807_JUSTAS] ?
0.766 kcal/mol

# folding stability dG unfold lookup, item SAGGSAGGSAGGSPEELAAAIRAEGREAEIEVTPDEVTIRLTAPDGRRSTLTVPRAALASAGGSAGGSAGGS [r10_1029_JUSTAS]
< -1 kcal/mol

Query (sequence): SAGGSAGGSASSLEESLRAELPEGKPARIEVKVELEKTPNGKLKVKEVKVTVTLPNGPVVGSAGGSAGGSAG [r3_247_JUSTAS] ; field requested: folding stability dG unfold
1.24 kcal/mol

I would be grateful if you could share the reported folding stability dG unfold for SAGGSAGGSAWGWISFNFEFLMFNPDGMFMPFRMQIDIRVEVKPEPKPKPKPKRDPNGKWKSAGGSAGGSAG [r3_252_TrROS] .
2.65 kcal/mol

# lookup: folding stability dG unfold of SAGGSAGGSAGGNITVTEDGWIVIEIPYYSPDGGPSPITIVIPIPKMPPEEAEELADKGSAGGSAGGSAGGS [r10_1096_TrROS]
1.11 kcal/mol
